Below is a list of entries, each paired with its recorded selectivity ratio value.
experiment: in vivo; type: in vivo; conditions: mouse, in vivo, ip; LD50 and ED50 in mg/kg, i.p.; read-out: Therapeutic index
No unit in the answer, please; the number alone is enough.

O=C1NC(c2ccccc2)(c2cccnc2)C(=O)N1CCCN1CCC(c2ccccc2)CC1 (stereo not drawn) [Example 4] ... 5
O=C1NC(=O)C(c2ccccc2)(c2ccncc2)N1 (stereo not drawn) [VII, 5-phenyl-5-(4-pyridyl)hydantoin] ... 1.17
O=C1NC(c2ccccc2)(c2ccccn2)C(=O)N1CCCN1CCC(O)(c2ccccc2)CC1 (stereo not drawn) [Example 2] ... 3.4

Short answer for O=C1NC(=O)C(c2ccccc2)(c2ccccn2)N1 (stereo not drawn) [V, 5-phenyl-5-(2-pyridyl)hydantoin] : selectivity ratio was 1.16

Short answer for O=C1NC(c2ccccc2)(c2ccncc2)C(=O)N1CCCN1CCC(c2ccccc2)CC1 (stereo not drawn) [Example 5] : selectivity ratio was 2.1

Short answer for O=C1NC(c2ccccc2)(c2ccccn2)C(=O)N1CCCN1CCC(c2ccccc2)CC1 (stereo not drawn) [Example 1] : selectivity ratio was 9
